- MEASURED_TARGET: UniProt Q07869
- Sequence (Q07869 239-466 limits assumed): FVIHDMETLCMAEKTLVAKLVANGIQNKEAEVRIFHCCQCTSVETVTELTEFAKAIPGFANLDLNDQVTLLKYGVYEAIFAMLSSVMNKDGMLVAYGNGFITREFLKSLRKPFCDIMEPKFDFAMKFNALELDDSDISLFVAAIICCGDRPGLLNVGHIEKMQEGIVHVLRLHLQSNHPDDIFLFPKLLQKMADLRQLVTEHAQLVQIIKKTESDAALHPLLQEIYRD
- METHOD_SUMMARY: Transient transfection (transactivation) assay in CV-1 cells, GAL4 chimera, SPAP reporter
MEASURE: EC50 (nM)
Kindly provide the numeric value in nM only, without the unit symbol.

// query Reported EC50, compound Cc1nc(-c2ccc(C(F)(F)F)cc2)sc1C(=O)NC1CCCc2cc(OC(C)(C)C(=O)O)ccc21 (stereo not shown) [Example 4] : ____
// result 10

Where do the numbers come from? From patent US6867225B2.
